- Test system: P388 leukemia ip, CD2F1 mice, survival T/C
- MEASUREMENT DESCRIPTION: NCI In Vivo Anticancer Drug Screen. Data for tumor model P388 Leukemia (intraperitoneal) in CD2F1 (CDF1) mice
- MEASUREMENT CONTEXT: endpoint: median survival time; dose: 12.5 mg/kg/injection; schedule: Q01DX009 (ip); vehicle: other; higher = longer survival
- Description: The antitumor activity of compounds was measured in mice bearing transplantable tumors. Survival or tumor size were measured and the results are expressed as the measurement made in the treated group (T) divided by the measurement made in the vehicle treated control group (C). The tumor model used in this assay is P388 Leukemia (intraperitoneal) in CD2F1 (CDF1) mice
Inconclusive results and toxic doses are left out.
REPORTED PROPERTY: T/C

Q. What T/C value was documented for this molecule, C=c1[nH]c(=O)c(=C)[nH]c1=O ?
A. 94 % of control

Q. For the molecule shown here, COc1ccc(NC(=O)c2ccc3c(c2)OCO3)cc1 , give the reported T/C.
A. 108 % of control

Q. For the molecule shown here, Cc1nc(Cl)c(C)c(C(=O)O)n1 , give the reported T/C.
A. 114 % of control

Q. Fill in: T/C of O=C(CNOCc1ccccc1)OCc1ccccc1 is ___
A. 88 % of control
